Please provide measured pKd for the entries that follow.
# Test system: Cytochrome P450 (Mycobacterium tuberculosis, UniProt A0A0T9WNE5)
# Assay comment: Binding affinity to Mycobacterium tuberculosis CYP121 expressed in Escherichia coli HMS174 (DE3) by UV-visible scanning spectrophotometric analysis
Numbers only, as −log10 of the molar value.

## Input Quick one: pKd for O=C1N[C@@H](Cc2ccc(O)cc2)C(=O)N[C@H]1Cc1ccccc1 ?
## Output 4.09

## Input Could you share which pKd value was measured for O=C1N[C@@H](Cc2ccc(F)cc2)C(=O)N[C@H]1Cc1ccc(F)cc1 ?
## Output 5.20

## Input Would you mind telling me what pKd value was observed for COc1ccc(C[C@@H]2NC(=O)[C@H](Cc3ccc(O)cc3)NC2=O)cc1 ?
## Output 4.98

Would you mind listing pKd for each of the following compounds?
1. O=C1N[C@@H](Cc2ccccc2)C(=O)N[C@H]1Cc1ccccc1
2. O=C1N[C@@H](Cc2ccc(I)cc2)C(=O)N[C@H]1Cc1ccc(I)cc1
3. COc1ccc(C[C@@H]2NC(=O)[C@H](Cc3ccc(OC)cc3)NC2=O)cc1
4. O=C1N[C@@H](Cc2ccc(O)c(I)c2)C(=O)N[C@H]1Cc1ccc(O)c(I)c1

## Output
5.62
6.14
4.53
6.35

* * *

# Test system: UniProtKB A0A0T9WNE5
# Sequence (A0A0T9WNE5 whole entry): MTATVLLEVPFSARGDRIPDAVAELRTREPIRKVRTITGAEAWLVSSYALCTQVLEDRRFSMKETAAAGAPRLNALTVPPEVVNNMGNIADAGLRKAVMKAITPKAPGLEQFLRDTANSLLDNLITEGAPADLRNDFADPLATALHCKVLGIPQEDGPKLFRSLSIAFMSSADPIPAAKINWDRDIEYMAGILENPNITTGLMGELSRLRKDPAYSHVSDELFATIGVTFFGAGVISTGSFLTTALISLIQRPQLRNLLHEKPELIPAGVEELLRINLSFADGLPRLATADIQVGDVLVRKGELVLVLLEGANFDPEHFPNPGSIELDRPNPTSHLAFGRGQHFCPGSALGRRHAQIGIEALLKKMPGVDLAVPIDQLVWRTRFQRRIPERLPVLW
# Assay comment: Binding affinity to Mycobacterium tuberculosis His6-tagged CYP121 assessed as compound-adduct formation by measuring high spin complex by UV-visible scanning spectrophotometric analysis relative to control
# Design: concentration or dose not given beside the values
Record form. Attribute: Activity. Fill in for each entry.
Answers are plain numbers, in %.

## Input // lookup Activity for O=C1N[C@@H](Cc2ccc(O)c(Br)c2)C(=O)N[C@H]1Cc1ccc(O)cc1
## Output 85

## Input Suppose we examine the compound Cc1cc(O)cc(C)c1C[C@@H]1NC(=O)[C@H](Cc2ccc(O)cc2)NC1=O ; what Activity value has been reported?
## Output 1

## Input Would you kindly share the measured Activity for O=C1N[C@@H](Cc2ccc(O)c(Cl)c2)C(=O)N[C@H]1Cc1ccc(O)cc1 ?
## Output 68

## Input What Activity value was documented for this compound, O=C1N[C@@H](Cc2ccc(O)c(F)c2)C(=O)N[C@H]1Cc1ccc(O)cc1 ?
## Output 36

## Input Look at this compound and give its reported Activity. Cc1cc(O)ccc1C[C@@H]1NC(=O)[C@H](Cc2ccc(O)cc2)NC1=O
## Output 20

## Input // returns reported Activity for input O=C1N[C@@H](Cc2ccc(O)c(I)c2)C(=O)N[C@H]1Cc1ccc(O)cc1
## Output 98

Please supply Activity for each of the following items, keeping them in order.
1. O=C1N[C@@H](Cc2cc(I)c(O)c(I)c2)C(=O)N[C@H]1Cc1ccc(O)cc1
2. Cc1cc(C[C@@H]2NC(=O)[C@H](Cc3ccc(O)cc3)NC2=O)cc(C)c1O
3. Cc1cc(C[C@@H]2NC(=O)[C@H](Cc3ccc(O)cc3)NC2=O)ccc1O

## Output
1. 74
2. 75
3. 91

Just for reference, ChEMBL document CHEMBL4321824 is where these values come from.
